Data provenance: patent US20080261994A1

Would you kindly list pIC50 for each of these compounds?
# study.system: Recombinant Human MMP-13 (Homo sapiens, UniProt P45452)
# Construct: purchased R&D systems 511-MM
# test: MMP-13 inhibitory activity (MMP-13 specific fluorescent substrate with quencher)
# Assay type: biochemical
# test.conditions: Experimental Example 3; read-out: IC50 MMP13
pIC50: −log10 of the molar value.

Enter recorded pIC50 with Recombinant Human MMP-13 (Homo sapiens, UniProt P45452) for CC1[C@H](c2ccccc2)[C@]1(NS(=O)(=O)c1ccc2c(c1)Cc1cc(Br)ccc1-2)C(=O)O (stereo partly drawn) here.
> 7.00

Enter recorded pIC50 with Recombinant Human MMP-13 (Homo sapiens, UniProt P45452) for Cc1cnn(-c2ccc(S(=O)(=O)N[C@@]3(C(=O)O)C[C@@H]3c3ccccc3)cn2)c1 here.
> 7.00

Enter recorded pIC50 with Recombinant Human MMP-13 (Homo sapiens, UniProt P45452) for CC(=O)Nc1cccc(-c2ccc(S(=O)(=O)N[C@@]3(C(=O)O)C[C@]3(C)c3ccccc3)s2)c1 here.
> 7.00

Enter recorded pIC50 with Recombinant Human MMP-13 (Homo sapiens, UniProt P45452) for CCOC(=O)CSCC1(c2ccccc2)CC1(NS(=O)(=O)c1ccc(-c2cc(C(F)(F)F)on2)s1)C(=O)O (stereo not drawn) here.
> 7.00

Enter recorded pIC50 with Recombinant Human MMP-13 (Homo sapiens, UniProt P45452) for O=C(O)C1(NS(=O)(=O)c2cn3cc(-c4ccc(F)cc4)nc3s2)CC1c1ccccc1 (stereo not drawn) here.
> 7.00

Enter recorded pIC50 with Recombinant Human MMP-13 (Homo sapiens, UniProt P45452) for CCOC(=O)c1cc(-c2ccc(S(=O)(=O)N[C@@]3(C(=O)O)C(C)[C@@H]3c3ccccc3)s2)no1 (stereo partly drawn) here.
> 6.00

Enter recorded pIC50 with Recombinant Human MMP-13 (Homo sapiens, UniProt P45452) for C[C@]1(c2ccccc2)C[C@@]1(NS(=O)(=O)c1ccc(-c2ccc(C#N)c(F)c2)s1)C(=O)O here.
> 6.00

Enter recorded pIC50 with Recombinant Human MMP-13 (Homo sapiens, UniProt P45452) for C[C@]1(c2ccccc2)C[C@@]1(NS(=O)(=O)c1ccc(-c2ccc3c(c2)OCCO3)s1)C(=O)O here.
≤ 6.00

Enter recorded pIC50 with Recombinant Human MMP-13 (Homo sapiens, UniProt P45452) for CC1[C@H](c2ccccc2)[C@]1(NS(=O)(=O)N1CCN(c2ccc(Cl)cc2F)CC1)C(=O)O (stereo partly drawn) here.
> 7.00

Enter recorded pIC50 with Recombinant Human MMP-13 (Homo sapiens, UniProt P45452) for CC1CCC(N2CCN(S(=O)(=O)N[C@@]3(C(=O)O)C(C)[C@@H]3c3ccccc3)CC2)CC1 (stereo partly drawn) here.
≤ 6.00

Enter recorded pIC50 with Recombinant Human MMP-13 (Homo sapiens, UniProt P45452) for CC1[C@H](c2ccccc2)[C@]1(NS(=O)(=O)c1ccc2c(c1)Cc1cc(Cl)ccc1-2)C(=O)O (stereo partly drawn) here.
> 7.00

Enter recorded pIC50 with Recombinant Human MMP-13 (Homo sapiens, UniProt P45452) for O=C(O)C1(NS(=O)(=O)c2ccc(-c3cc(C(F)(F)F)on3)s2)C2CCCc3ccccc3C21 (stereo not drawn) here.
> 7.00

Enter recorded pIC50 with Recombinant Human MMP-13 (Homo sapiens, UniProt P45452) for NCCc1ccc([C@H]2C[C@@]2(NS(=O)(=O)c2ccc(-c3cc(C(F)(F)F)on3)s2)C(N)=O)cc1 here.
> 7.00

Enter recorded pIC50 with Recombinant Human MMP-13 (Homo sapiens, UniProt P45452) for O=C(O)[C@]1(NS(=O)(=O)c2ccc(-c3ccc([N+](=O)[O-])cc3)s2)C[C@@H]1c1ccccc1 here.
> 6.00

Enter recorded pIC50 with Recombinant Human MMP-13 (Homo sapiens, UniProt P45452) for CC(=O)c1cnn(-c2ccc(S(=O)(=O)N[C@@]3(C(=O)O)C(C)[C@@H]3c3ccccc3)s2)c1 (stereo partly drawn) here.
> 7.00

Enter recorded pIC50 with Recombinant Human MMP-13 (Homo sapiens, UniProt P45452) for Cc1cc(C2CC2(NS(=O)(=O)c2ccc(-c3cc(C(F)(F)F)on3)s2)C(=O)O)on1 (stereo not drawn) here.
> 6.00

Enter recorded pIC50 with Recombinant Human MMP-13 (Homo sapiens, UniProt P45452) for CC1[C@H](c2ccccc2)[C@]1(NS(=O)(=O)N1CC=C(c2ccc(Cl)cc2)CC1)C(=O)O (stereo partly drawn) here.
> 7.00

Enter recorded pIC50 with Recombinant Human MMP-13 (Homo sapiens, UniProt P45452) for CC1[C@H](c2ccccc2)[C@]1(NS(=O)(=O)c1ccc(-n2cc(CO)cn2)s1)C(=O)O (stereo partly drawn) here.
> 7.00

Enter recorded pIC50 with Recombinant Human MMP-13 (Homo sapiens, UniProt P45452) for C[C@]1(c2ccccc2)C[C@@]1(NS(=O)(=O)c1ccc(-n2cc(S(C)(=O)=O)cn2)s1)C(=O)O here.
> 6.00

Enter recorded pIC50 with Recombinant Human MMP-13 (Homo sapiens, UniProt P45452) for CN1CCN(C(=O)OCC2(c3ccccc3)CC2(NS(=O)(=O)c2ccc(-c3cc(C(F)(F)F)on3)s2)C(=O)O)CC1 (stereo not drawn) here.
> 6.00

Enter recorded pIC50 with Recombinant Human MMP-13 (Homo sapiens, UniProt P45452) for CN(C)c1cc(-c2ccc(S(=O)(=O)N[C@@]3(C(=O)O)C[C@]3(C)c3ccccc3)s2)ccc1Cl here.
≤ 6.00

###

Would you kindly list pIC50 for each of these compounds?
# study.system: Recombinant Human MMP-13 (Homo sapiens, UniProt P45452)
# Construct: purchased R&D systems 511-MM
# test: MMP-13 inhibitory activity (MMP-13 specific fluorescent substrate with quencher)
# Assay type: biochemical
# test.conditions: Recombinant Human MMP-13, fluorescent substrate, 25° C. for 1 h; read-out: IC50 MMP13 (Experimental Example 3)
# Method: Inhibitory activity of tested compounds on MMP-13 was measured using MMP-13 specific fluorescent substrate with quencher. The enzyme and substrate were diluted with Tris-HCl buffer, and test compounds were diluted with dimethyl sulfoxide (DMSO). Test compounds and the enzyme (Recombinant Human MMP-13: R&D systems, 511-MM) were added into 96-well plate. The reaction was initiated by adding synthetic substrate (7-MCA-Pro-CHA-Gly-NVal-His-Ala-DPA: enzyme systems products, Met-06) into the plate. […]
pIC50: −log10 of the molar value.

Identify measured pIC50 associated with CC(C)(C)NCCOc1ccccc1C1CC1(NS(=O)(=O)c1ccc(-c2ccc(Cl)cc2)s1)C(=O)O (stereo not drawn) [Example 2-53]
≤ 6.00

Identify measured pIC50 associated with Cc1ccc(-c2ccccc2C2CC2(NS(=O)(=O)c2ccc(-c3ccc(Cl)cc3)s2)C(=O)O)cc1 (stereo not drawn) [Example 2-40]
> 6.00

Identify measured pIC50 associated with O=C(O)[C@]1(NS(=O)(=O)c2ccc(-c3ccc(Cl)cc3)s2)C[C@@H]1c1cccc(NCc2cccnc2)c1 [Example 2-173]
> 7.00

###

# study.system: UniProt O75173
# Sequence (O75173 213-837, species assumed): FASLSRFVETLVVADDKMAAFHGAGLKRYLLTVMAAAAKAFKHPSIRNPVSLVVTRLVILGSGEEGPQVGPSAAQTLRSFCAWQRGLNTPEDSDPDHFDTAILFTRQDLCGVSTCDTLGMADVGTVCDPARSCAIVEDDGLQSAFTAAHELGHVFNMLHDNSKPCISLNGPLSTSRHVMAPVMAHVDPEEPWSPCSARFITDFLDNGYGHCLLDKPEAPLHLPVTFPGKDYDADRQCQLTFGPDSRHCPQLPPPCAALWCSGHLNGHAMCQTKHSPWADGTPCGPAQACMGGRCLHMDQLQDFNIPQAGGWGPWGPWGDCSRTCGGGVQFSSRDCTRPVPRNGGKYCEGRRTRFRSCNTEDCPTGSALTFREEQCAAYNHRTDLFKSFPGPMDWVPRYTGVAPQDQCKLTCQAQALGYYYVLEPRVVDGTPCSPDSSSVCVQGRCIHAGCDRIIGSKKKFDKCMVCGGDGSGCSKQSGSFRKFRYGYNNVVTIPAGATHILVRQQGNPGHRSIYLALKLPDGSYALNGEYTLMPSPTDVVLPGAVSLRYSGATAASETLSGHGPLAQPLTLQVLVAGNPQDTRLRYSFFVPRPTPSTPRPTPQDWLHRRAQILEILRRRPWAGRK
# test: Aggrecanase-1 inhibitory action (Particle Assay, GAG release from aggrecan-containing polyacrylamide particles)
# Assay type: biochemical
# test.conditions: Experimental Example 1; read-out: IC50 AG1
reported.metric: IC50

Identify measured IC50 associated with CC(=O)NCC1(c2ccccc2)CC1(NS(=O)(=O)c1ccc(-c2ccc(Cl)cc2)s1)C(=O)O (stereo not drawn)
< 1 µM

Identify measured IC50 associated with CC1[C@H](c2ccccc2)[C@]1(NS(=O)(=O)c1ccc(-c2cc(C(F)F)no2)s1)C(=O)O (stereo partly drawn)
< 0.1 µM

Identify measured IC50 associated with C[C@]1(c2ccccc2)C[C@@]1(NS(=O)(=O)c1ccc(-n2cc(C(F)(F)F)cn2)s1)C(=O)O
< 0.1 µM

Identify measured IC50 associated with CC1C(c2ccccc2)C1(NS(=O)(=O)c1ccc(-c2cccc(CN3CCOCC3)c2)s1)C(=O)O (stereo not drawn)
≥ 1 µM

Identify measured IC50 associated with CC1[C@H](c2ccccc2)[C@]1(NS(=O)(=O)N1CCN(C/C=C/c2ccccc2)CC1)C(=O)O (stereo partly drawn)
≥ 1 µM

Identify measured IC50 associated with CC1[C@H](c2ccccc2)[C@]1(NS(=O)(=O)c1ccc(-c2cc3ccccc3[nH]2)s1)C(=O)O (stereo partly drawn)
< 0.1 µM

Identify measured IC50 associated with CC1(c2ccc(Cl)cc2)CC1(NS(=O)(=O)c1ccc(-c2cc(C(F)(F)F)on2)s1)C(=O)O (stereo not drawn)
< 0.1 µM

Identify measured IC50 associated with C[C@]1(c2ccccc2)C[C@@]1(NS(=O)(=O)c1ccc(-c2ccc3c(c2)OCCO3)s1)C(=O)O
< 1 µM

Identify measured IC50 associated with CC1[C@H](c2ccccc2)[C@]1(NS(=O)(=O)c1ccc(-c2cc(C3CC3)on2)s1)C(=O)O (stereo partly drawn)
< 0.1 µM

Identify measured IC50 associated with CC1[C@H](c2ccccc2)[C@]1(NS(=O)(=O)c1ccc(-c2nc3ccccc3[nH]2)s1)C(=O)O (stereo partly drawn)
< 1 µM

Identify measured IC50 associated with C[C@]1(c2ccccc2)C[C@@]1(NS(=O)(=O)c1ccc(-c2ncc(F)cc2F)s1)C(=O)O
< 1 µM

Identify measured IC50 associated with COc1ccc2[nH]c(-c3ccc(S(=O)(=O)N[C@@]4(C(=O)O)C(C)[C@@H]4c4ccccc4)s3)nc2c1 (stereo partly drawn)
≥ 1 µM
